Value source: PubChem BioAssay AID2202554

# Tested on: S. typhimurium/E. coli reverse mutation, colony counts
# procedureText: Bacterial reverse mutation test (aka Ames test) summary data;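 also: His-minus Salmonella and trp-minus E. coli WP2 uvrA pKM101 with or without liver S9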
Inconclusive results are not listed. Calls of active or inactive are those of the source. No rule for the calls is given here.
Answer with one of the outcomes 1 (yes) (active), 0 (no) (inactive)

Answered examples (3):
{"testSmiles": "O=C1CCCO1", "classification": "0 (no)"}
{"testSmiles": "Cc1cc(C)c(S(=O)(=O)O)cc1N=Nc1cc(S(=O)(=O)O)c2ccccc2c1O", "classification": "0 (no)"}
{"testSmiles": "Cc1ccncc1", "classification": "0 (no)"}

INPUT: Identify the outcome logged in this assay for the compound shown: "c1ccc2sc(SSc3nc4ccccc4s3)nc2c1"
OUTPUT: 1 (yes)

INPUT: What call does the record list for "CSCCC=O" ?
OUTPUT: 0 (no)

INPUT: Look up the recorded call for "CC(C)=O" in this test.
OUTPUT: 0 (no)

INPUT: Just curious, what result did "CC(=O)c1nccs1" get here?
OUTPUT: 0 (no)

INPUT: For "O.O.O.O.O.O.O=S(=O)([O-])[O-].[Ni+2]" , which call appears in the assay record?
OUTPUT: 0 (no)

INPUT: Could you please tell me the result logged for "O=[N+]([O-])c1ccc(Cl)cc1Cl" in this assay?
OUTPUT: 1 (yes)
